Where do these numbers come from? They come from ChEMBL document CHEMBL1949649.

# half-life per entry
experiment: Half life in Beagle dog at 5 mg/kg, po; type: ADME, organism-based, Canis lupus familiaris; parameters: dose 5 mg/kg, route oral; settings: in vivo
Express your answer in h, writing the number without its unit.

Item Smiles: CC(=O)N1CCC(Cn2c(C(C)(C)C)nc3cc(S(=O)(=O)c4nccs4)ccc32)CC1
Unit Label: h
half-life: 5

query: half-life lookup needed for CC(=O)N1CCC(Cn2c(C(C)(C)C)nc3cc(S(=O)(=O)CC4CC4)ccc32)CC1 , thanks.
result: 3.2

* * *

Measured logP values are reported for all entries that follow.
test: Lipophilicity, Log P of the compound; format: physicochemical; details: octanol/water
// print number alone

query: Returns the measured logP for the input molecule. Input: CC(=O)N1CCC(Cn2c(C(C)(C)C)nc3cc(S(=O)(=O)c4nccs4)ccc32)CC1
result: 1.9

query: Entry CC(=O)N1CCC(Cn2c(C(C)(C)C)nc3cc(S(=O)(=O)CC4CC4)ccc32)CC1 please
result: 1.67
